# Target desc: PPARδ (Mus musculus)
# Construct: GAL4-mPPARδ
# Sequence (P35396 210-440 limits assumed): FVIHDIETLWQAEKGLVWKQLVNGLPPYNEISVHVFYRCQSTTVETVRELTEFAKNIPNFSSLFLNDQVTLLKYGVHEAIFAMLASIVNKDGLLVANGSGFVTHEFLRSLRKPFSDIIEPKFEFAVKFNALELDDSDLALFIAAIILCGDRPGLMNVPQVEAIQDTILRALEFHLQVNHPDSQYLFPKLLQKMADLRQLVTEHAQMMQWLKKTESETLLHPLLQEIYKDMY
# Procedure details: GAL4/UAS-luciferase reporter assay in transfected HEK293 cells, dose-response (partial agonist)
pEC50: −log10 of the molar value.
Quantity kind: pEC50

1) CCCCCCCCCCCCCCCc1cccc(OC(C)(C)C(=O)O)c1 [LDT409]; 6.00

----------
# Target desc: PPARγ (Mus musculus)
# Construct: GAL4-mPPARγ
# Sequence (P37238 whole entry, the tested form may be a part): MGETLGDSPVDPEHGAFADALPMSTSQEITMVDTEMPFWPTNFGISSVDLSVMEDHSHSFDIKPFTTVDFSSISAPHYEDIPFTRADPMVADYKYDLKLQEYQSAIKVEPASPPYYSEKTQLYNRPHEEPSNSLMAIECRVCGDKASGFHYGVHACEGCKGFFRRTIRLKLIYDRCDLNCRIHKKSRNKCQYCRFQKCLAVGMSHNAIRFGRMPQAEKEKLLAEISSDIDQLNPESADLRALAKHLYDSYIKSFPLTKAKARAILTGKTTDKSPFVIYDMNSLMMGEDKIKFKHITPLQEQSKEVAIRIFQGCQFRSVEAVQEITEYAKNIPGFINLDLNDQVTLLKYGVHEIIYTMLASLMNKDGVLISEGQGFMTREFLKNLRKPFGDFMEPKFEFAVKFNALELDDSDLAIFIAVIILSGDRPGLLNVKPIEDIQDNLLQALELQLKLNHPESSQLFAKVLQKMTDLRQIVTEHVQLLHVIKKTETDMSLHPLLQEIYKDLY
# Procedure details: GAL4/UAS-luciferase reporter assay in transfected HEK293 cells, dose-response (partial agonist)
Quantity kind: EC50 (nM)

1. CCCCCCCCCCCCCCCc1cccc(OC(C)(C)C(=O)O)c1 [LDT409]; 100

Reference source: paper PMC11170206
